system-under-test: PD-1/PD-L1 interaction (Homo sapiens, UniProt Q9NZQ7)
Construct: expressed in transfected cells; host or cells: CHO cells (aAPC-PD-L1) co-cultured with Jurkat cells overexpressing PD-1 and an NFAT-luciferase reporter
Sequence (Q9NZQ7 19-290): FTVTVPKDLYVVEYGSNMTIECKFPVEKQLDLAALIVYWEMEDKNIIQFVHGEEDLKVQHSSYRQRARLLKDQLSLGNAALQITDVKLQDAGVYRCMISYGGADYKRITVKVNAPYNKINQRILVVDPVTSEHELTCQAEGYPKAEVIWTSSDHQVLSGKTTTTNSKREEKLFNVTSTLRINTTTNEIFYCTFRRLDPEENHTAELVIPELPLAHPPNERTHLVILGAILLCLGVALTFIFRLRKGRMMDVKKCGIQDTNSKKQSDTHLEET
measurement-description: PD-1/PD-L1 NFAT reporter co-culture assay
Type: cell-based
condition-info: Jurkat PD-1 NFAT-luciferase cells co-cultured with aAPC-PD-L1 CHO cells, 6 hrs at 37° C.; read-out: EC50 NFAT Luciferase
pEC50: −log10 of the molar value.
Items are presented alongside their recorded pEC50.
measurement-label: pEC50

molecule	system-under-test	measurement-label	endpoint-value
CN1CCCC1c1ccc(-c2cccc(-c3cccc4c3CC[C@@H]4Oc3nc(OCc4cncc(C#N)c4)c(CN[C@@](C)(CO)C(=O)O)cc3Cl)c2Cl)cc1 (stereo partly shown)	PD-1/PD-L1 interaction (Homo sapiens, UniProt Q9NZQ7)	pEC50	6.51
COc1nc(OCc2cccc(-c3cccc(COc4nc(OC)c(CNC[C@H](O)C(=O)O)cc4Cl)c3C)c2C)c(Cl)cc1CNC[C@H](O)C(=O)O	PD-1/PD-L1 interaction (Homo sapiens, UniProt Q9NZQ7)	pEC50	6.86
COc1nc(O[C@H]2CCc3c(-c4cccc(-c5ccc(CNC[C@@H]6CCC(=O)N6)cc5)c4Cl)cccc32)c(Cl)cc1CN[C@@](C)(CO)C(=O)O	PD-1/PD-L1 interaction (Homo sapiens, UniProt Q9NZQ7)	pEC50	7.59
COc1nc(OCc2cccc(-c3cccc(COc4nc(OC)c(CN[C@@H](CO)C(=O)O)cc4Cl)c3C)c2C)c(Cl)cc1CN[C@@H](CO)C(=O)O	PD-1/PD-L1 interaction (Homo sapiens, UniProt Q9NZQ7)	pEC50	7.12
